Target: UniProt P14780
Test: Inhibition of human MMP9 using Dnp-Pro-Cha-Gly-Cys(ME)-His-Ala-Lys(Nma)-NH2 as substrate preincubated for 0.5 hrs followed by substrate addition and measured after 6 hrs by fluorimeter analysis
property_measured: IC50 (nM)
Give the number; nM is assumed, so skip it.

Which IC50 is listed for `O=C(O)[C@H]1[C@H](CN2C(=O)c3ccccc3C2=O)CC[C@@H]1SCc1ccc(-c2ccc(Cl)cc2)cc1` ?
13

* * *

Molecular target: Disintegrin and metalloproteinase domain-containing protein 17 (Homo sapiens, UniProt P78536)
Sequence (P78536 whole entry, the tested form may be a part): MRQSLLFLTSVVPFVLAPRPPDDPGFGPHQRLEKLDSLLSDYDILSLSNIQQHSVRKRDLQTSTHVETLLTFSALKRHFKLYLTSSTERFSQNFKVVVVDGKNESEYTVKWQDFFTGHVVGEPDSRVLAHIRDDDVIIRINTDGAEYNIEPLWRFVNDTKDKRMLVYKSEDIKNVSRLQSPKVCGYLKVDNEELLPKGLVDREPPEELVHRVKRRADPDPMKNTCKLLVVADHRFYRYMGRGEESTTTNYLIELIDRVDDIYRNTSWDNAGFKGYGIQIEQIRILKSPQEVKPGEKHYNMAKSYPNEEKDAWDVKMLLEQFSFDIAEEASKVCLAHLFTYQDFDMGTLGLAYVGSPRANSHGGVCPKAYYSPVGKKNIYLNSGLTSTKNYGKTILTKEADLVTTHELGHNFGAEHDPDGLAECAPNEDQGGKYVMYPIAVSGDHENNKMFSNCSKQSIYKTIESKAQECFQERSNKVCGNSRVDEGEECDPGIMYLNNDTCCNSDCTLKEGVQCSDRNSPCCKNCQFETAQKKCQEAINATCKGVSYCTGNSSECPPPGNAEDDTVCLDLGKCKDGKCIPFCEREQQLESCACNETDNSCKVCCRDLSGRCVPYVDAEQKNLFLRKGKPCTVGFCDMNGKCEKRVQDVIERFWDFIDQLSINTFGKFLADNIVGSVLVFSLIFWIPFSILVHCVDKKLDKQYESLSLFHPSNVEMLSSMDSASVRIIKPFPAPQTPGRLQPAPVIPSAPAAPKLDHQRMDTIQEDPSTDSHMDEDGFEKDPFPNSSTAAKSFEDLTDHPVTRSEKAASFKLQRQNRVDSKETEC
property_measured: IC50

>  <structure_notation>
COc1ccc(S(=O)(=O)N(C)c2c(CN3CCOCC3)cc(C)cc2C(=O)NO)cc1

>  <IC50>
174 nM

$$$$

Which IC50 is listed for `COc1ccc(S(=O)(=O)N(C)c2c(C)cc(Cc3ccc(CN(C)C)cc3)cc2C(=O)NO)cc1` ?
243 nM

Which IC50 is listed for `COc1ccc(S(=O)(=O)N(c2c(C)cc(-c3cccc(C(F)(F)F)c3)cc2C(=O)NO)N(C)C)cc1` ?
633 nM

Which IC50 is listed for `COc1ccc(S(=O)(=O)N(Cc2ccccc2)c2c(C(=O)NO)ccc3c(C(C)(C)C)cccc23)cc1` ?
401 nM

* * *

Biological target: Neutrophil collagenase (Homo sapiens, UniProt P22894)
Sequence (P22894 whole entry): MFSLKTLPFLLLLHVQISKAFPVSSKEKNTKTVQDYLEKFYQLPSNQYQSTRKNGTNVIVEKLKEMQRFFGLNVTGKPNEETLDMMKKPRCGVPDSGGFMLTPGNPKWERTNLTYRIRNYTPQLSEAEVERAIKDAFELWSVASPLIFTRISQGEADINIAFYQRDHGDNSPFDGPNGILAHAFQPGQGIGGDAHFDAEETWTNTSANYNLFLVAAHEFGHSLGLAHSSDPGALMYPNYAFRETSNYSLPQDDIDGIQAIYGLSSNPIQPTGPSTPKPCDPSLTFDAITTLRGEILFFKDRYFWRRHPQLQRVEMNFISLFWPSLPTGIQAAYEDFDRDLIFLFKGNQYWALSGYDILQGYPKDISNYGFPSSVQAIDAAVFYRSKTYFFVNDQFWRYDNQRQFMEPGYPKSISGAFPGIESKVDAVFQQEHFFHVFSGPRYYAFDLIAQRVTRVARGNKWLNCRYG
Test: Inhibition of recombinant human MMP8 using […] as substrate incubated for 20 to 30 mins by fluorescence microplate reader analysis
property_measured: pIC50
Units for pIC50: none; it is -log10 of a concentration expressed in mol/L.

Which pIC50 is listed for COc1ccc(S(=O)(=O)N2CCCC(C)(C)CC2C(=O)NO)cc1 (stereo unspecified) ?
8.72

* * *

Biological target: 72 kDa type IV collagenase (Homo sapiens)
Sequence (P08253 whole entry): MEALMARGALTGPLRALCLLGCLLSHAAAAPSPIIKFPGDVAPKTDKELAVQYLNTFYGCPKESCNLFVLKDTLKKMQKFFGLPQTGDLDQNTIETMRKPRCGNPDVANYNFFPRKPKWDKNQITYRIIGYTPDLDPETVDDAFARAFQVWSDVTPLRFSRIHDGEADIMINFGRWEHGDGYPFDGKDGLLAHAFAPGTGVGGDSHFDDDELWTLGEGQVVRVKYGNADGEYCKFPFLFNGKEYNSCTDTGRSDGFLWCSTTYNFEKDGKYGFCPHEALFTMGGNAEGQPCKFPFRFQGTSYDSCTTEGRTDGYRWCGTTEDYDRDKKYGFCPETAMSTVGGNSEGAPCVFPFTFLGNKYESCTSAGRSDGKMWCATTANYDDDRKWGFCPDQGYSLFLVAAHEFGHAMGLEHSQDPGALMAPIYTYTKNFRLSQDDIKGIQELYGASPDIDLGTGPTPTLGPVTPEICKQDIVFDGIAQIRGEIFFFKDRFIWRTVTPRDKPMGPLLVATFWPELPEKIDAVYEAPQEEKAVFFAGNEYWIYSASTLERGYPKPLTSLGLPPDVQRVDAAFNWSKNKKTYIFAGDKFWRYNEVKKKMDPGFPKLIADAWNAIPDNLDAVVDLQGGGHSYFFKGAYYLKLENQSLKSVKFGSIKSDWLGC
Assay: Inhibition of MMP-2 (unknown origin) using Ac-PLG-[2-mercapto-4-methylpentanoyl]-LG-OC2H5) as substrate measured upto 20 mins by microplate reader analysis
property_measured: pIC50
Units for pIC50: none; it is -log10 of a concentration expressed in mol/L.

Which pIC50 is listed for `O=C(NO)C1(S(=O)(=O)c2ccc(-n3cc(-c4ccc(-c5cncnc5)cc4)nn3)cc2)CCOCC1` ?
9.30

* * *

Target: Matrix metalloproteinase-9 (Homo sapiens)
Sequence (P14780 whole entry): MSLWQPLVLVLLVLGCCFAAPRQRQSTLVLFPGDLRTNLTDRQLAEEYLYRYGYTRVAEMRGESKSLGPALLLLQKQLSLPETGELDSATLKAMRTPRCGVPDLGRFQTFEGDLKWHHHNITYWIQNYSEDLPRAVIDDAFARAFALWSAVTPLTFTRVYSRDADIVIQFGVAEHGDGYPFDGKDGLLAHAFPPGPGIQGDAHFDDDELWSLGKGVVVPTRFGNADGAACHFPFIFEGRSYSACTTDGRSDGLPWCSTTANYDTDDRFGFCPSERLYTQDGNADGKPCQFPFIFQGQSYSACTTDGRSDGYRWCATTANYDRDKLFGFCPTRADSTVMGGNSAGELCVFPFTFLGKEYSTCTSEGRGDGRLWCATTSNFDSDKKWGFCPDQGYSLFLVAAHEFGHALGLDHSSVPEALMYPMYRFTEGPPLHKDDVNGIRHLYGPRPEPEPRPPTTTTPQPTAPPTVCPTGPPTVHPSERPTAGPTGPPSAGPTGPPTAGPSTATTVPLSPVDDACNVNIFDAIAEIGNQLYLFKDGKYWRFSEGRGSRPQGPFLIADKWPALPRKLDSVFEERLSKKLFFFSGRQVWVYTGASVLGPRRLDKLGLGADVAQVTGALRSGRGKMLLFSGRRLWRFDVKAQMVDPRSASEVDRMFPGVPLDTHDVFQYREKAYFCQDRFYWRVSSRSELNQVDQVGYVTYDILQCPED
Experiment: Inhibition of human MMP9 using Dnp-Pro-Cha-Gly-Cys(Me)-His-Ala-Lys(Nma)-NH2 substrate by fluorimetric analysis
property_measured: IC50 (nM)
Give the number; nM is assumed, so skip it.

Which IC50 is listed for COc1ccc(S(=O)(=O)N2CC(C)(C)C(CCSCc3ccccc3)C2C(=O)NO)cc1 (stereo unspecified) ?
0.9

* * *

Target: Interstitial collagenase (Homo sapiens)
Sequence (P03956 whole entry): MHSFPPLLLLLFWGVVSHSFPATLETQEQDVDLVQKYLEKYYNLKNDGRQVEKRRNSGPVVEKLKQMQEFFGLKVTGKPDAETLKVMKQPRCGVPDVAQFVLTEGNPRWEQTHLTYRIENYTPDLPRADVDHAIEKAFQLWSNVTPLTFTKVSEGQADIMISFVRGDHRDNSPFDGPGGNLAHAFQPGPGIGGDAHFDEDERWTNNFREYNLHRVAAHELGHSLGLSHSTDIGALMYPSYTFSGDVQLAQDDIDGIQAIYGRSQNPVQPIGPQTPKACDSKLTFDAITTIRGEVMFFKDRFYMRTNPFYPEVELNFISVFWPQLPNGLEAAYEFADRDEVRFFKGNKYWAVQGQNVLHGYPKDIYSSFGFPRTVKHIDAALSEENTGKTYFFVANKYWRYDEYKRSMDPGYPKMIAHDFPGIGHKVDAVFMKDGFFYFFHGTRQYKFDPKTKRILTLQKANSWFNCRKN
Experiment: Inhibition of MMP-1 (unknown origin) by fluorimetric assay
property_measured: IC50
Numeric answer plus unit only.

Which IC50 is listed for `CC1(C)NC(=O)N(C[C@H](CS(=O)(=O)c2ccc(-c3ccc(OC(F)(F)F)cc3)cc2)N(O)C=O)C1=O` ?
82 nM

* * *

Molecular target: Matrix metalloproteinase-9 (Homo sapiens)
Assay: Inhibition of MMP-9 (unknown origin) assessed as inhibition constant using Mca-Pro-Leu-Gly-Dpa-Ala-Arg-NH2 substrate preincubated for 1 hr followed by substrate addition and measured after 1 hr by fluorimetric analysis
property_measured: IC50 (nM)
Give the number; nM is assumed, so skip it.

Which IC50 is listed for `CCCCCCCCCC[C@@H](CC(=O)NO)C(=O)N[C@H](C(=O)NC)c1ccccc1` ?
0.2
